Just for reference, the supplement of paper PMC9112550 is where these values come from.

Test system: Escherichia coli TOP10
Assay: shrunken log2 fold change of peptide-encoding DNA abundance (4.5 h post-induction vs induction); higher = less antimicrobial activity (less host growth inhibition)
Details: time post-induction: 4.5 h; library: site-saturation at positions 5, 18, 19, 20
Quick rule: shrunken log2 fold change of at least 0.06 means T, below that means F.

# check: shrunken log2 fold change of `RRIRVRPPRLPRPRPRPSKGPRP` is greater than or equal to 0.06
F

# check: shrunken log2 fold change of `RRIRWRPPRLPRPRPRPNKTPRP` is greater than or equal to 0.06
T

# check: shrunken log2 fold change of `RRIRQRPPRLPRPRPRPFQEPRP` is greater than or equal to 0.06
F

# check: shrunken log2 fold change of `RRIRGRPPRLPRPRPRPPSGPRP` is greater than or equal to 0.06
T

# check: shrunken log2 fold change of `RRIRDRPPRLPRPRPRPSMNPRP` is greater than or equal to 0.06
F

# check: shrunken log2 fold change of `RRIRWRPPRLPRPRPRPPIQPRP` is greater than or equal to 0.06
T

---

System: Escherichia coli TOP10
Test: shrunken log2 fold change of peptide-encoding DNA abundance (4.5 h post-induction vs induction); higher = less antimicrobial activity (less host growth inhibition)
Details: time post-induction: 4.5 h; library: site-saturation at positions 5, 18, 19, 20
Each record's shrunken log2 fold change is compared with lo (below -0.07), med (-0.07 to below 0.1), hi (0.1 or more) to give its class.

Hi there! Could you help me figure out the category for `RRIRIRPPRLPRPRPRPFTDPRP` please?
med

Hi there! Could you help me figure out the category for `RRIRIRPPRLPRPRPRPISIPRP` please?
med

Hi there! Could you help me figure out the category for `RRIRHRPPRLPRPRPRPGTDPRP` please?
lo

Hi there! Could you help me figure out the category for `RRIRYRPPRLPRPRPRPPLNPRP` please?
lo

Hi there! Could you help me figure out the category for `RRIRSRPPRLPRPRPRPGICPRP` please?
hi

Hi there! Could you help me figure out the category for `RRIRPRPPRLPRPRPRPRWIPRP` please?
hi

Hi there! Could you help me figure out the category for `RRIRMRPPRLPRPRPRPNWHPRP` please?
med

Hi there! Could you help me figure out the category for `RRIRLRPPRLPRPRPRPVGPPRP` please?
hi

---

Test system: Escherichia coli TOP10;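 also: peptides expressed intracellularly from a pBAD plasmid library in pooled LB shake-flask culture, induced with 0.3% L-arabinose, DNA abundance read by NGS, three biological replicates, DESeq2 with apeglm shrinkage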
Test: shrunken log2 fold change of peptide-encoding DNA abundance (4.5 h post-induction vs induction); higher = less antimicrobial activity (less host growth inhibition)
Settings: time post-induction: 4.5 h; library: site-saturation at positions 5, 18, 19, 20
Hi there, I'd appreciate the recorded shrunken log2 fold change for every entry that follows.
Keep the answer to the number alone.

Record `RRIRGRPPRLPRPRPRPQEHPRP` , field shrunken log2 fold change: 0.146

Record `RRIRIRPPRLPRPRPRPCQPPRP` , field shrunken log2 fold change: -0.378

Record `RRIRKRPPRLPRPRPRPRQFPRP` , field shrunken log2 fold change: 0.192

Record `RRIRERPPRLPRPRPRPRSTPRP` , field shrunken log2 fold change: -0.259

Record `RRIRVRPPRLPRPRPRPYFYPRP` , field shrunken log2 fold change: -0.474

Record `RRIRLRPPRLPRPRPRPSEIPRP` , field shrunken log2 fold change: -0.397

Record `RRIRFRPPRLPRPRPRPCTRPRP` , field shrunken log2 fold change: 0.0381

Record `RRIRNRPPRLPRPRPRPRDAPRP` , field shrunken log2 fold change: -0.163

Record `RRIRLRPPRLPRPRPRPADIPRP` , field shrunken log2 fold change: -0.00142

Record `RRIRTRPPRLPRPRPRPDKHPRP` , field shrunken log2 fold change: -0.551

Record `RRIRCRPPRLPRPRPRPKVVPRP` , field shrunken log2 fold change: -0.0915

Record `RRIRVRPPRLPRPRPRPNGKPRP` , field shrunken log2 fold change: -0.407

Record `RRIRERPPRLPRPRPRPMLRPRP` , field shrunken log2 fold change: -0.0352

Record `RRIRRRPPRLPRPRPRPCYMPRP` , field shrunken log2 fold change: -0.191

Record `RRIRHRPPRLPRPRPRPWRWPRP` , field shrunken log2 fold change: 0.16

Record `RRIRYRPPRLPRPRPRPSSFPRP` , field shrunken log2 fold change: -0.0941

Record `RRIRPRPPRLPRPRPRPYMFPRP` , field shrunken log2 fold change: -0.897

Record `RRIRFRPPRLPRPRPRPMTEPRP` , field shrunken log2 fold change: -0.0907
